- Tested on: human EGFR-positive HNSCC cell line TU167
- Experiment notes: CellTiter-Glo Luminescent Cell Viability Assay, TU167
- Assay type: cell-based
- Condition: read-out: IC50 to HNSCC cell lines (Erlotinib)
Quantity kind: IC50 (nM)
Enter your answer as a number in nM; do not include the unit.

Enquiry: Please look up its IC50: C#Cc1cccc(Nc2ncnc3cc(OCCOC)c(OCCOC)cc23)c1 [Erlotinib]
Return: 410

---

- System: human EGFR-positive HNSCC cell line UMSCC47
- Experiment notes: CellTiter-Glo Luminescent Cell Viability Assay, UMSCC47
- Type: cell-based
- Condition: read-out: IC50 to HNSCC cell lines (Erlotinib)
Quantity kind: pIC50
Bear in mind: pIC50 is minus log10 of a mol/L concentration; give just that figure.

Enquiry: GET /values?readout=pIC50&item= C#Cc1cccc(Nc2ncnc3cc(OCCOC)c(OCCOC)cc23)c1
Return: 5.39
